Assay: Toxicity in icv dosed C57BL/6J mouse assessed as antinociceptive activity tolerance
Format: organism-based
Conditions: in vivo, icv_or_intrathecal
valueType: log10(ED50) (log10 of the value in nmol)

- O=C1N[C@H](Cc2ccccc2)C(=O)N2CCC[C@@H]2C(=O)N[C@H](Cc2ccccc2)C(=O)N[C@H]1Cc1c[nH]c2ccccc12: 0.72
- O=C1N[C@@H](Cc2ccccc2)C(=O)N2CCC[C@@H]2C(=O)N[C@@H](Cc2ccccc2)C(=O)N[C@H]1Cc1c[nH]c2ccccc12: 0.72
- O=C1N[C@H](Cc2ccccc2)C(=O)N2CCC[C@@H]2C(=O)N[C@@H](Cc2ccccc2)C(=O)N[C@H]1Cc1c[nH]c2ccccc12: 1.31
- O=C1N[C@H](Cc2ccccc2)C(=O)N[C@H](Cc2c[nH]c3ccccc23)C(=O)N[C@@H](Cc2ccccc2)C(=O)N2CCC[C@H]12: -0.31
- O=C1N[C@@H](Cc2ccccc2)C(=O)N2CCC[C@@H]2C(=O)N[C@H](Cc2ccccc2)C(=O)N[C@H]1Cc1c[nH]c2ccccc12: 2.10

---

Test: Toxicity in po dosed mouse assessed as antinociceptive activity tolerance by tail flick assay
Assay type: organism-based
Settings: in vivo
valueType: ED50 (mg/kg)

- CC[C@@H]1CN2CC[C@]3(O)c4c(cccc4OC)NC3[C@@H]2C[C@@H]1/C(=C\OC)C(=O)OC (some centres undefined): 7.5
- CC[C@@H]1CN2CC[C@]3(O)c4c(ccc(F)c4OC)N[C@@H]3[C@@H]2C[C@@H]1/C(=C\OC)C(=O)OC: 0.45
- CC[C@@H]1CN2CC[C@@]34OCCO[C@@]3(Nc3ccc(F)c(OC)c34)[C@@H]2C[C@@H]1/C(=C\OC)C(=O)OC: 11.1
- CC[C@@H]1CN2CC[C@]3(O)c4c(cccc4OC)N[C@@H]3[C@@H]2C[C@@H]1/C(=C\OC)C(=O)OC: 2.2

---

Test system: Mus musculus
Assay: Antinociceptive activity in po dosed C57BL/6J mouse assessed as tail withdrawal latency from warm water
Format: functional
Property: ED50; scope: individual compounds
valueType: ED50 (mg/kg)

- O=C1N[C@H](Cc2ccccc2)C(=O)N[C@H](Cc2c[nH]c3ccccc23)C(=O)N[C@@H](Cc2ccccc2)C(=O)N2CCC[C@H]12: 4.72
- O=C1N[C@H](Cc2ccccc2)C(=O)N2CCC[C@@H]2C(=O)N[C@@H](Cc2ccccc2)C(=O)N[C@H]1Cc1c[nH]c2ccccc12: 7.62
- O=C1N[C@H](Cc2ccccc2)C(=O)N2CCC[C@@H]2C(=O)N[C@H](Cc2ccccc2)C(=O)N[C@H]1Cc1c[nH]c2ccccc12: 4.12
- O=C1N[C@H](Cc2c[nH]c3ccccc23)C(=O)N[C@@H](Cc2ccccc2)C(=O)N2CCC[C@@H]2C(=O)N[C@H]1Cc1ccccc1: 60

---

Biological target: Delta-type opioid receptor (Rattus norvegicus, UniProt P33533)
Assay: Displacement of [3H][DAla2]deltorphin-I from rat brain DOP incubated for 90 mins by scintillation counter
Format: tissue-based
valueType: Ki (µM)

* C[C@@H](NC(=O)[C@@H](N)Cc1ccc(O)cc1)C(=O)N[C@@H](Cc1ccccc1)C(=O)NCC(=O)N[C@@H](Cc1ccc(O)cc1)C(=O)N1CCC[C@H]1C(=O)N[C@@H](CCCCN)C(N)=O | 1.1

---

Assay: Stability in rat brain homogenate assessed as compound remaining measured after 90 mins relative to control
Type: ADME, tissue-based
Conditions: read-out: Stability
valueType: remaining at […] (%)

* Cc1cc(O)cc(C)c1C[C@H](N)C(=O)N[C@@H]1CCCCNC(=O)C[C@@H](C(N)=O)NC(=O)[C@H](c2ccccc2)NC(=O)[C@H](c2ccccc2)NC1=O | 85
* Cc1ccc([C@@H]2NC(=O)[C@H](NC(=O)[C@@H](N)Cc3c(C)cc(O)cc3C)CCCCNC(=O)C[C@@H](C(N)=O)NC(=O)[C@H](c3ccccc3)NC2=O)cc1 | 85
* NC(=O)[C@H](Cc1ccccc1)NC(=O)[C@H](Cc1ccccc1)NC(=O)[C@@H]1CCCN1C(=O)[C@@H](N)Cc1ccc(O)cc1 [ENDOMORPHIN 2] | 0
* Cc1cccc([C@@H]2NC(=O)[C@H](c3ccccc3)NC(=O)[C@H](NC(=O)[C@@H](N)Cc3c(C)cc(O)cc3C)CCCCNC(=O)C[C@@H](C(N)=O)NC2=O)c1 | 85
* NC(=O)[C@@H]1CC(=O)NCCCC[C@@H](NC(=O)[C@@H](N)Cc2ccc(O)cc2)C(=O)N[C@@H](c2ccc(F)cc2F)C(=O)N[C@@H](c2ccccc2)C(=O)N1 | 93
* Cc1ccc([C@@H]2NC(=O)[C@H](c3ccccc3)NC(=O)[C@H](NC(=O)[C@@H](N)Cc3c(C)cc(O)cc3C)CCCCNC(=O)C[C@@H](C(N)=O)NC2=O)cc1 | 85

---

Test: Stability in rat brain homogenate assessed as half life
Assay type: ADME, tissue-based
valueType: half-life (min)

* COC(=O)[C@H](Cc1ccccc1)NC(=O)[C@H](Cc1ccccc1)NC(=O)[C@@H]1CCCN1C(=O)[C@@H](N)Cc1ccc(O)cc1 | 47.6
* CCOC(=O)[C@H](Cc1ccccc1)NC(=O)[C@H](Cc1ccccc1)NC(=O)[C@@H]1CCCN1C(=O)[C@@H](N)Cc1ccc(O)cc1 | 58.6
* NC(=O)[C@H](Cc1ccccc1)NC(=O)[C@H](Cc1ccccc1)NC(=O)[C@@H]1CCCN1C(=O)[C@@H](N)Cc1ccc(O)cc1 [ENDOMORPHIN 2] | 15.9
* CC(C)(C)OC(=O)[C@H](Cc1ccccc1)NC(=O)[C@H](Cc1ccccc1)NC(=O)[C@@H]1CCCN1C(=O)[C@@H](N)Cc1ccc(O)cc1 | 72.2

---

Molecular target: Delta-type opioid receptor (Mus musculus, UniProt P32300)
Assay: Inhibition of mouse DOP
valueType: IC50 (µM)

* CC[C@@H]1CN2CC[C@]3(O)c4c(cccc4OC)NC3[C@@H]2C[C@@H]1/C(=C\OC)C(=O)OC (stereo partly specified) | 10

---

Target: Kappa-type opioid receptor (Mus musculus, UniProt P33534)
Experiment: Displacement of [3H]U69593 from mouse brain membrane KOP by competitive binding assay
Assay type: cell membranes
valueType: Ki (nM)

- Cc1cc(O)cc(C)c1C[C@H](N)C(=O)N[C@H](CCCNC(=N)N)C(=O)N[C@@H](Cc1ccccc1)C(=O)N[C@@H](CCCCN)C(N)=O: 11.5

---

Assay: Half life in mouse liver microsomes
Format: ADME, Microsome
Entries and their half-life
valueType: half-life

* O=C1N[C@H](Cc2c[nH]c3ccccc23)C(=O)N[C@H](Cc2ccccc2)C(=O)N2CCC[C@@H]2C(=O)N[C@H]1Cc1ccccc1 | ≤ 30 min
* O=C1N[C@@H](Cc2ccccc2)C(=O)N2CCC[C@@H]2C(=O)N[C@@H](Cc2ccccc2)C(=O)N[C@H]1Cc1c[nH]c2ccccc12 | 49 min
* O=C1N[C@H](Cc2ccccc2)C(=O)N[C@H](Cc2c[nH]c3ccccc23)C(=O)N[C@@H](Cc2ccccc2)C(=O)N2CCC[C@H]12 | ≤ 30 min
* O=C1N[C@@H](Cc2ccccc2)C(=O)N2CCC[C@@H]2C(=O)N[C@H](Cc2ccccc2)C(=O)N[C@H]1Cc1c[nH]c2ccccc12 | ≤ 30 min
* O=C1N[C@H](Cc2ccccc2)C(=O)N2CCC[C@@H]2C(=O)N[C@H](Cc2ccccc2)C(=O)N[C@H]1Cc1c[nH]c2ccccc12 | ≤ 30 min
* O=C1N[C@H](Cc2ccccc2)C(=O)N2CCC[C@@H]2C(=O)N[C@@H](Cc2ccccc2)C(=O)N[C@H]1Cc1c[nH]c2ccccc12 | 54 min

---

Experiment: Stability in rat brain homogenate assessed as compound remaining measured after 90 mins relative to control
Assay type: ADME, tissue-based
Conditions: read-out: Stability
valueType: remaining at […] (%)

- Cc1cc(O)cc(C)c1C[C@H](N)C(=O)N[C@@H]1CCCCNC(=O)C[C@@H](C(N)=O)NC(=O)[C@H](c2ccc(F)cc2F)NC(=O)[C@H](c2ccccc2)NC1=O: 93
- NC(=O)[C@@H]1CC(=O)NCCCC[C@@H](NC(=O)[C@@H](N)Cc2ccc(O)cc2)C(=O)N[C@@H](c2ccccc2)C(=O)N[C@@H](c2ccc(F)cc2F)C(=O)N1: 93
- NC(=O)[C@@H]1CC(=O)NCCCC[C@@H](NC(=O)[C@@H](N)Cc2ccc(O)cc2)C(=O)N[C@@H](c2ccc(F)cc2)C(=O)N[C@@H](c2ccccc2)C(=O)N1: 93
- Cc1cc(O)cc(C)c1C[C@H](N)C(=O)N[C@@H]1CCCCNC(=O)C[C@@H](C(N)=O)NC(=O)[C@H](c2ccc(F)cc2)NC(=O)[C@H](c2ccccc2)NC1=O: 93
- Cc1ccccc1[C@@H]1NC(=O)[C@H](c2ccccc2)NC(=O)[C@H](NC(=O)[C@@H](N)Cc2c(C)cc(O)cc2C)CCCCNC(=O)C[C@@H](C(N)=O)NC1=O: 85
- NC(=O)[C@@H]1CC(=O)NCCCC[C@@H](NC(=O)[C@@H](N)Cc2ccc(O)cc2)C(=O)N[C@@H](c2ccccc2)C(=O)N[C@@H](c2ccc(C(F)(F)F)cc2)C(=O)N1: 93
